System Tested: Tyrosyl-tRNA synthetase, putative (Trypanosoma cruzi (strain CL Brener))
Test Name: Trypanosoma cruzi tyrosyl tRNA synthetase (TcYRS) _High Tyrosine SOP
Assay type: functional
Parameters: scale not given: in the data most compounds retested in dose-response had high values
Measurement Setup: 30 µM
Provide the reported Percent Effect of each item.
Entry rule: numbers only, all in %.

Provide only the value of recorded Percent Effect for `c1ccc(-c2nnc(CNCCn3cccn3)o2)cc1`
6.4

Provide only the value of recorded Percent Effect for CC(C)CCN1CCNC(=O)C1CC(=O)N1CCc2sccc2C1 (configuration not stated)
4.3

Provide only the value of recorded Percent Effect for CC(O)CN1CCN(C(=O)c2cccc(CC#N)c2)CC1 (configuration not stated)
6.8

Provide only the value of recorded Percent Effect for Cc1nc(CN2CCCC(NCc3c(C)nc4sccn34)C2)no1 (configuration not stated)
10.7

Provide only the value of recorded Percent Effect for `Cc1ccccc1-c1cncc(C2CCN(C)CC2)n1`
5.38

Provide only the value of recorded Percent Effect for Cc1nn(CC(=O)N2CCCC2Cn2cccn2)c(C)c1Cl (configuration not stated)
9.9

Provide only the value of recorded Percent Effect for CCc1nccn1C1CCCN(C(=O)c2ccc3[nH]c(=O)[nH]c3c2)C1 (configuration not stated)
8.74

Provide only the value of recorded Percent Effect for `O=C(c1cc(COc2ccc3c(c2)OCO3)[nH]n1)N1CCCC1`
3.12

Provide only the value of recorded Percent Effect for Cc1nc(O)cc(C2CCN(Cc3cccc(F)c3F)C2)n1 (configuration not stated)
2.15

Provide only the value of recorded Percent Effect for `Cc1cc(C)c2nc(CN3CC[C@@H](O)C3)cc(O)c2c1`
13.2

Provide only the value of recorded Percent Effect for `CC(C)c1nnc2ccc(N3CCC(C(N)=O)CC3)nn12`
-1.06

Provide only the value of recorded Percent Effect for COC(=O)c1ccc(N2CCN(CCN3CCOCC3)C(C)C2)cc1 (configuration not stated)
7.39
